# Study target: T1, CD32b (FcgRIIb) (Homo sapiens, UniProt P31994)
# T1 sequence (P31994 43-310): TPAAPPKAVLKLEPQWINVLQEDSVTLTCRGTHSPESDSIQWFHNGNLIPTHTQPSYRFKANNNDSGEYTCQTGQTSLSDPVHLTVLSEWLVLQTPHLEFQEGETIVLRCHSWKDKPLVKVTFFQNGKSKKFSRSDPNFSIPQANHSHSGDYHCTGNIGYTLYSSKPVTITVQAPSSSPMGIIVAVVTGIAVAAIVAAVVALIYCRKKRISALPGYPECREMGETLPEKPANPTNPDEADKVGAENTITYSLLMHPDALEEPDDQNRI
# Method summary: SPR binding to FcgR-his: CD32b
# Setup conditions: 1 μM antibody, anti-his Fab captured FcgR-his

# Molecule, % Rmax, binding to hCD32b, %
measured = [
    ("mAb10-IgG2.3G1-AY-V27 (protein, left off: another chain or arm of the molecule) constant: ASTKGPSVFPLAPCSRSTSESTAALGCLVKDYFPEPVTVSWNSGALTSGVHTFPAVLQSSGLYSLSSVVTVPSSNFGTQTYTCNVDHKPSNTKVDKTVERKSCVECPPCPAPELLGGPSVFLFPPKPKDTLMISRTPEVTCVVVDVEHEDPEVKFNWYVDGVEVHNAKTKPREEQYNSTYRVVSVLTVLHQDWLNGKEYKCKVSNKALPAPIEKTISKAKGQPREPQVYTLPPSREEMTKNQVSLTCLVKGFYPSDIAVEWESNGQPENNYKTTPPVLDSDGSFFLYSKLTVDKSRWQQGNVFSCSVMHEALHNHYTQKSLSLSPGK", 40),
]
